Hey, just so you know, these numbers are from ChEMBL document CHEMBL3745701.

Quick reference for inhibition (INH) among some compounds
assay: Antioxidant activity assessed as DPPH radical scavenging activity at 0.5 mM after 30 mins; type: physicochemical; settings: 0.5 h, 500 µM
measure name: inhibition (INH)

{"columns": ["smiles input", "val"],
 "data": [
  ["O=C(/C=C/c1ccc(O)c2c1[C@@H](C(=O)O[C@H](Cc1ccc(O)c(O)c1)C(=O)O)[C@H](c1ccc(O)c(O)c1)O2)O[C@H](Cc1ccc(O)c(O)c1)C(=O)O", "64.1%"],
  ["O=C(/C=C/c1ccc(O)c(O)c1/C(=C/c1ccc(O)c(O)c1)C(=O)O[C@@H](Cc1ccc(O)c(O)c1)C(=O)O)O[C@@H](Cc1ccc(O)c(O)c1)C(=O)O", "14.8%"],
  ["O=C1O[C@H]([C@@H](O)CO)C(O)=C1O", "58.5%"],
  ["O=C(/C=C/c1ccc(O)c2c1[C@@H](C(=O)O[C@@H](Cc1ccc(O)c(O)c1)C(=O)O)[C@H](c1ccc(O)c(O)c1)O2)O[C@@H](Cc1ccc(O)c(O)c1)C(=O)O", "77.1%"]
]}
